These measurements were taken from patent US11203577B2.

# Tested on: Wheat head blight
# Assay protocol: whole plant or invertebrate
# Format: cell-based
# Assay context: Triticum aestivum, read-out: Fungicidal activity (%) Wheat head blight
Each entry below carries its recorded inhibition at 50 mg/kg.

// below: answered compounds
1) CC1=NNC(=O)N(/N=C/c2cccnc2)C1 [Pymetrozine, reference compound] = 13.3%
2) CC1=NNC(=O)N(N(S(=O)(=O)c2ccccc2)S(=O)(=O)c2ccccc2)C1 = 10%
3) CC1=NNC(=O)N(NS(=O)(=O)c2ccc(F)c(F)c2F)C1 = 5.4%

Assay Wheat head blight, sample CCCCS(=O)(=O)NN1CC(C)=NNC1=O , inhibition at 50 mg/kg read: 6.7%

Assay Wheat head blight, sample CC1=NNC(=O)N(NS(=O)(=O)c2ccc(C)cc2)C1 , inhibition at 50 mg/kg read: 13.3%

Assay Wheat head blight, sample CC1=NNC(=O)N(NS(=O)(=O)c2ccc(Br)cc2)C1 , inhibition at 50 mg/kg read: 16.2%

Assay Wheat head blight, sample CC1=NNC(=O)N(NS(=O)(=O)c2ccccc2C)C1 , inhibition at 50 mg/kg read: 13.5%

Assay Wheat head blight, sample CC1=NNC(=O)N(NS(=O)(=O)c2ccc(C#N)cc2)C1 , inhibition at 50 mg/kg read: 5.4%

Assay Wheat head blight, sample N#Cc1c(Cl)c(Cl)c(Cl)c(C#N)c1Cl [Chlorothalonil, reference compound] , inhibition at 50 mg/kg read: < 50%

Assay Wheat head blight, sample CCCCS(=O)(=O)N(N1CC(C)=NNC1=O)S(=O)(=O)CCCC , inhibition at 50 mg/kg read: 3.3%
